# ASSAYED TARGET: UniProt:P09237
# Sequence (P09237 whole entry): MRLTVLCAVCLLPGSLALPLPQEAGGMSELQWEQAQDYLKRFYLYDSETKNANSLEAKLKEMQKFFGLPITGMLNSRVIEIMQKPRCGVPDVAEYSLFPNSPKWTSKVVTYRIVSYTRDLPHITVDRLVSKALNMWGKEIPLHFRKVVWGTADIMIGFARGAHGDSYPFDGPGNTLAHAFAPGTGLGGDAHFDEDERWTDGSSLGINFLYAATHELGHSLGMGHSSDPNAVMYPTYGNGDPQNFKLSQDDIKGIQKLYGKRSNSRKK
# ASSAY OVERVIEW: Inhibition of human recombinant MMP-7 at 50 uM by fluorescence spectrophotometric analysis relative to control
Calls of active or inactive are those of the source. The rule behind the calls is not given here.
MEASURE: inhibition

molecule="CC(C)NC(=O)Oc1ccc(Oc2ccc(S(=O)(=O)CC3CS3)cc2)cc1 (stereo unspecified)" assayed_target=UniProt:P09237 result=inactive
molecule="CCCNC(=O)Nc1ccc(Oc2ccc(S(=O)(=O)CC3CS3)cc2)cc1 (stereo unspecified)" assayed_target=UniProt:P09237 result=inactive
molecule="CCCNC(=O)Oc1ccc(Oc2ccc(S(=O)(=O)CC3CS3)cc2)cc1 (stereo unspecified)" assayed_target=UniProt:P09237 result=2%
molecule="CCOC(=O)Nc1ccc(Oc2ccc(S(=O)(=O)CC3CS3)cc2)cc1 (stereo unspecified)" assayed_target=UniProt:P09237 result=inactive
molecule="CC(C)OC(=O)Oc1ccc(Oc2ccc(S(=O)(=O)CC3CS3)cc2)cc1 (stereo unspecified)" assayed_target=UniProt:P09237 result=13%
molecule="COC(=O)Nc1ccc(Oc2ccc(S(=O)(=O)CC3CS3)cc2)cc1 (stereo unspecified)" assayed_target=UniProt:P09237 result=inactive
molecule="COC(=O)Oc1ccc(Oc2ccc(S(=O)(=O)CC3CS3)cc2)cc1 (stereo unspecified)" assayed_target=UniProt:P09237 result=11%
molecule="CNC(=O)Oc1ccc(Oc2ccc(S(=O)(=O)CC3CS3)cc2)cc1 (stereo unspecified)" assayed_target=UniProt:P09237 result=6%
molecule="CCNC(=O)Oc1ccc(Oc2ccc(S(=O)(=O)CC3CS3)cc2)cc1 (stereo unspecified)" assayed_target=UniProt:P09237 result=inactive
molecule="CCCOC(=O)Oc1ccc(Oc2ccc(S(=O)(=O)CC3CS3)cc2)cc1 (stereo unspecified)" assayed_target=UniProt:P09237 result=10%
molecule="CCOC(=O)Oc1ccc(Oc2ccc(S(=O)(=O)CC3CS3)cc2)cc1 (stereo unspecified)" assayed_target=UniProt:P09237 result=9%
molecule="CCNC(=O)Nc1ccc(Oc2ccc(S(=O)(=O)CC3CS3)cc2)cc1 (stereo unspecified)" assayed_target=UniProt:P09237 result=7%
molecule="CNC(=O)Nc1ccc(Oc2ccc(S(=O)(=O)CC3CS3)cc2)cc1 (stereo unspecified)" assayed_target=UniProt:P09237 result=8%
molecule="CC(C)NC(=O)Nc1ccc(Oc2ccc(S(=O)(=O)CC3CS3)cc2)cc1 (stereo unspecified)" assayed_target=UniProt:P09237 result=6%
molecule="CCCOC(=O)Nc1ccc(Oc2ccc(S(=O)(=O)CC3CS3)cc2)cc1 (stereo unspecified)" assayed_target=UniProt:P09237 result=inactive
molecule="CC(C)OC(=O)Nc1ccc(Oc2ccc(S(=O)(=O)CC3CS3)cc2)cc1 (stereo unspecified)" assayed_target=UniProt:P09237 result=inactive

Just for reference, ChEMBL document CHEMBL2440018 is where these values come from.
